# Experimental Protocol: Cell Viability - Jurkat (AID 426);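 note: potency is the fitted concentration of half-maximal effect; cells exposed to compound for 40 hours at 37 °C before ATP read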
# Cond: qHTS
Inconclusive results are not listed. Active and inactive are the calls of the source.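 Rule for the calls: active = dose-dependent loss of cell ATP signal giving a full or clear fitted curve, ranked by lower potency value; inconclusive = weak partial curve or response only at the top dose; inactive = no loss of viability signal.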
Measurement Label: Potency

Known results for molecules:
Molecular String: CCCCNC(=O)NS(=O)(=O)c1ccc(C)cc1
Potency: > 92 µM (inactive)
--
Molecular String: Nc1ncn([C@@H]2O[C@H](CO)[C@@H](O)[C@H]2O)c(=O)n1
Potency: 1.01 µM (active)
--
Molecular String: CN=C(NC#N)NCCSCc1nc[nH]c1C
Potency: > 92 µM (inactive)
--
Molecular String: NC(=O)N1c2ccccc2C=Cc2ccccc21
Potency: > 92 µM (inactive)
--
Molecular String: CCCCOCCOCCOCc1cc2c(cc1CCC)OCO2
Potency: > 92 µM (inactive)

From here, focus on the item given below.
INPUT: Which Potency is reported for this molecule? COC(=O)[C@H]1[C@H]2C[C@@H]3c4[nH]c5cc(OC)ccc5c4CCN3C[C@H]2C[C@@H](OC(=O)c2cc(OC)c(OC)c(OC)c2)[C@@H]1OC
OUTPUT: 35.9 µM (active)

----------
# System Under Test: Beta-2 adrenergic receptor (Homo sapiens) (UniProt P07550)
# Sequence (P07550 whole entry, looked up): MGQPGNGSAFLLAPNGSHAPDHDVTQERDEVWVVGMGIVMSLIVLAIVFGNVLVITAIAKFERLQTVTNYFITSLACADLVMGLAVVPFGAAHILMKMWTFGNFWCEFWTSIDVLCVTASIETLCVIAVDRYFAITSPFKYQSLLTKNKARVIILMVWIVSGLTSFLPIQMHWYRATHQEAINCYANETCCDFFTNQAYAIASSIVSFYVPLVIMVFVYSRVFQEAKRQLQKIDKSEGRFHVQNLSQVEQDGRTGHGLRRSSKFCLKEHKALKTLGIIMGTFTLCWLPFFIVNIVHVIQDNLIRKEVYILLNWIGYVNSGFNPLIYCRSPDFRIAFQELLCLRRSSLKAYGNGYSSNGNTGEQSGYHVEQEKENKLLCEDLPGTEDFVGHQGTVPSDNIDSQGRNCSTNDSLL
# Experimental Protocol: qHTS validation assay of beta-arrestin-biased ligands of beta2-adrenergic receptor (AID 485366); note: 0% is about no effect
# Cond: cell-based beta-arrestin recruitment to ADRB2, qHTS; series mostly up to 46.1 µM
The source made the active and inactive calls. Calls come from the whole dose curve; as a rule, active = well fitted curve in the direction sought with a large enough effect; inconclusive = small, poorly fitted or top-dose-only effect, or effect the other way, or another doubt; inactive = no such curve, though single readings can be large or run the other way.
Measurement Label: outcome

Known results for compounds:
Compound: Cc1nnc(SCC2=C(C(=O)O)N3C(=O)[C@@H](NC(=O)Cn4cnnn4)[C@H]3SC2)s1
System Under Test: Beta-2 adrenergic receptor (Homo sapiens) (UniProt P07550)
Result: inactive

Compound: CN(C)C(=O)Oc1cccc([N+](C)(C)C)c1
System Under Test: Beta-2 adrenergic receptor (Homo sapiens) (UniProt P07550)
Result: inactive

Compound: COC(=O)[C@@H](N)Cc1ccc(O)c(O)c1
System Under Test: Beta-2 adrenergic receptor (Homo sapiens) (UniProt P07550)
Result: inactive

Compound: CCO/C([O-])=N/c1c[n+](N2CCOCC2)no1
System Under Test: Beta-2 adrenergic receptor (Homo sapiens) (UniProt P07550)
Result: inactive

Compound: CCN1CCc2nc(N)oc2CC1
System Under Test: Beta-2 adrenergic receptor (Homo sapiens) (UniProt P07550)
Result: inactive

INPUT: Which outcome is reported for this compound? CCC(=O)c1ccc2c(c1)N(CCCN(C)C)c1ccccc1S2
OUTPUT: inactive

----------
# System Under Test: Arylsulfatase A (Homo sapiens) (UniProt P15289)
# Sequence (P15289 whole entry, looked up): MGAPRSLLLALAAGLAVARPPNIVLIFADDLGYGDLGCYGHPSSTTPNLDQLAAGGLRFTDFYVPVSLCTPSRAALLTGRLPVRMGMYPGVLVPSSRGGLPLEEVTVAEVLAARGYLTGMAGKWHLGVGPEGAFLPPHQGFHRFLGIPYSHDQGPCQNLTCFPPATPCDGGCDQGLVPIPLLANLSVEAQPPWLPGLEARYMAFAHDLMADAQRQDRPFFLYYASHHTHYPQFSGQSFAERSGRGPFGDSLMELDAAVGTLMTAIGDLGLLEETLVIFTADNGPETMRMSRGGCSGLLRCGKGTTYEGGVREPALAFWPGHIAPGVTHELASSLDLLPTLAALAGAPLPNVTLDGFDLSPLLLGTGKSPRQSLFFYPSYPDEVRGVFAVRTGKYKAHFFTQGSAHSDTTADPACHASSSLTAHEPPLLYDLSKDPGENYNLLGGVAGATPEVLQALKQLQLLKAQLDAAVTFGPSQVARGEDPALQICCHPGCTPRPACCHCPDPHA
# Experimental Protocol: qHTS screen for enhancers of Arylsulfatase A (ASA1): LOPAC Validation Assay (AID 720538)
# Cond: ASA enzyme activity, LOPAC qHTS enhancer assay; series mostly up to 57.5 µM
Inconclusive results are not listed. Calls of active or inactive are those of the source. Calls come from the whole dose curve; as a rule, active = well fitted activation curve with a large enough effect; inconclusive = small, poorly fitted or top-dose-only effect; inactive = no such curve, though single readings can be large or run the other way.
API: response.call in yes (1) = active, no (0) = inactive

INPUT: Any idea what this test logged for COCCc1ccc(OCC(O)CNC(C)C)cc1 (configuration not stated) ?
OUTPUT: no (0)

INPUT: Any idea what this test logged for CCCN1C[C@H](CSC)C[C@@H]2c3cccc4[nH]cc(c34)C[C@H]21 ?
OUTPUT: no (0)

----------
# Tested on: ATS95
# Experimental Protocol: qHTS profiling for inhibitors of Plasmodium falciparum proliferation (AID 504749); note: nearly all actives have a fitted effect of over 60% in size; note: potency is the fitted concentration of half-maximal effect
# Cond: P. falciparum in erythrocytes, SYBR Green DNA, 72 h; series mostly up to 28.7 µM
Records with an inconclusive call do not appear. The source made the active and inactive calls. Calls follow the shape of the dose curve; as a rule, active = well fitted inhibition curve with a large enough effect; inconclusive = small, poorly fitted or top-dose-only effect; inactive = flat fitted curve, though single readings scatter.
Measurement Label: Potency

Known results for compounds:
Compound: CSc1ccc(C(=O)c2[nH]c(=O)[nH]c2C)cc1
Measurement Label: Potency
Result: inactive
//
Compound: O=C1CC2(CCCC2)CC(=O)N1CCCCN1CCN(c2ncccn2)CC1
Measurement Label: Potency
Result: inactive
//
Compound: O=C(CCNNC(=O)c1ccncc1)NCc1ccccc1
Measurement Label: Potency
Result: inactive
//
Compound: CC(C(=O)O)c1ccc(CC2CCCC2=O)cc1 (stereo not drawn)
Measurement Label: Potency
Result: inactive
//
Compound: COc1cc2c(cc1OC)-c1cc(=Nc3c(C)cc(C)cc3C)n(C)c(=O)n1CC2
Measurement Label: Potency
Result: 3.55 µM (active)

INPUT: Notebook entry, ATS95 assay: Potency of CCn1cc(C(=O)O)c(=O)c2cc3c(cc21)OCO3 = ?
OUTPUT: inactive

These data points were gathered from PubChem BioAssay (NCATS).
